Assay: physchem
Settings: pH 7, aqueous buffer, kinetic from dmso stock
Reported Metric: solubility (µM)

INSERT INTO results (compound, value) VALUES
  ('CC/C(=C(/CC)c1ccc(O)cc1)c1ccc(O)cc1 [Diethylstilbestrol, reference compound]', 12);

----------
Test: Pharmacokinetics in vivo after single oral or intravenous administration
Set-up: species or system rat
Settings: male, Wistar, rat, plasma, iv, 10 mg/kg, rats, i.v. injection, individual rat, read-out: C0
Reported Metric: C0 (ng/mL)

INSERT INTO measurements (smiles, reported_metric, unit_symbol, value) VALUES
  ('O=S1(=O)COc2cc(-c3ccc(OCC4CCN(c5ncc(Cl)cn5)CC4)c(F)c3)ccc21', 'C0', 'ng/mL', 29);
